Quick reference for kinase still bound, per cent of control among some compounds
- TARGET_ENTITY: DCLK1 (human)
- ASSAY_DETAILS: KINOMEscan competition binding
- TEST_CONDITIONS: compound 10.0 µM
Give your result in % as a bare value.

Please review the entries below; each comes with its answer.
compound=O=C(NOC[C@H](O)CO)c1ccc(F)c(F)c1Nc1ccc(I)cc1F recorded_metric="kinase still bound, per cent of control" quantity_unit=% readout_value=100
compound=CCCS(=O)(=O)Nc1ccc(F)c(C(=O)c2c[nH]c3ncc(-c4ccc(Cl)cc4)cc23)c1F recorded_metric="kinase still bound, per cent of control" quantity_unit=% readout_value=88
compound=Cc1cc([C@@H](C)Nc2ccccc2C(=O)O)c2nc(N3CCOCC3)cc(=O)n2c1 recorded_metric="kinase still bound, per cent of control" quantity_unit=% readout_value=78

Looking for the measured kinase still bound, per cent of control of CN(C)C/C=C/C(=O)Nc1cccc(Nc2ncc3c(n2)N(C)c2ccccc2C(=O)N3C)c1 , can you help?
4

Looking for the measured kinase still bound, per cent of control of CCOc1cc2ncc(C#N)c(Nc3ccc(OCc4ccccn4)c(Cl)c3)c2cc1NC(=O)/C=C/CN(C)C , can you help?
100

Looking for the measured kinase still bound, per cent of control of C[C@@H](Oc1cc(-n2cnc3ccc(CN4CCN(C)CC4)cc32)sc1C(N)=O)c1ccccc1C(F)(F)F , can you help?
40

Looking for the measured kinase still bound, per cent of control of COc1cc(C(=O)NC2CCN(C)CC2)ccc1Nc1ncc2c(n1)N(C1CCCC1)C(C)CC(=O)N2C (centres undefined) , can you help?
4

----------
- Test system: KIT (human), P10721 [V559D]
- Sequence (P10721 whole entry V559D, looked up): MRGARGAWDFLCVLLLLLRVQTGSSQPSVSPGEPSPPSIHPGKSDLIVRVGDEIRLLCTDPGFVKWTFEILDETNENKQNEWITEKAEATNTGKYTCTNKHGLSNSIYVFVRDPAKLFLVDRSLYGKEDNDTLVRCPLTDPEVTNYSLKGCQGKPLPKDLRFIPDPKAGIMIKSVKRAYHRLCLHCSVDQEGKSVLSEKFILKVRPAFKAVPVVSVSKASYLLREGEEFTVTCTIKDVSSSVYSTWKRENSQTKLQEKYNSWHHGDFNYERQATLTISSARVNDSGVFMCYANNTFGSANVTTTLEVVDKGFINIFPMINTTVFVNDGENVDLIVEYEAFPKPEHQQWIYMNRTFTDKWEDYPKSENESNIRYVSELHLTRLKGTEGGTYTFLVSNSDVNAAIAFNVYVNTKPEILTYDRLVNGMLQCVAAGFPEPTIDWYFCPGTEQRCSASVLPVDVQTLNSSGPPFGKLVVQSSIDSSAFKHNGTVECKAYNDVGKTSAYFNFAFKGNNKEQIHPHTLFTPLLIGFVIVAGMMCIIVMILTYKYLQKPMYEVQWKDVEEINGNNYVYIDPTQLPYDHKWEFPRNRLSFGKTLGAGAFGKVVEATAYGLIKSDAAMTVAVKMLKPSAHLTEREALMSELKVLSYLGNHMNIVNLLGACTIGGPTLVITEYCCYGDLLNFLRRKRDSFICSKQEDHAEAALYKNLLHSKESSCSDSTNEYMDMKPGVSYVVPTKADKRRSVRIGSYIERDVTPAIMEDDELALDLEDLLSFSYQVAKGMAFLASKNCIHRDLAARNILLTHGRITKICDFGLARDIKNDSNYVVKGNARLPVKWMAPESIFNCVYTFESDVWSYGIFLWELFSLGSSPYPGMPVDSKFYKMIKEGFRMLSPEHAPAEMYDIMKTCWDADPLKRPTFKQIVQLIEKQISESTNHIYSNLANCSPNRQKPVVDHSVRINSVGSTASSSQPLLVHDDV
- ASSAY_DETAILS: KINOMEscan competition binding
- TEST_CONDITIONS: compound 10.0 µM
Quick reference for kinase still bound, per cent of control among some compounds
Remember to follow the number with its unit.

compound=CCOc1cc2ncc(C#N)c(Nc3ccc(OCc4ccccn4)c(Cl)c3)c2cc1NC(=O)/C=C/CN(C)C readout_value=100%
compound=CNC(=O)c1cc(Oc2ccc(NC(=O)Nc3ccc(Cl)c(C(F)(F)F)c3)cc2)ccn1 readout_value=0.05%
compound=N#C/C(=C1/Nc2ccccc2S1)c1ccnc(NCCc2cccnc2)n1 readout_value=26%
compound=N#Cc1c(NC(=O)c2cccc3ccccc23)sc2c1CCCC2 readout_value=60%
compound=CN(C)C/C=C/C(=O)Nc1cccc(Nc2ncc3c(n2)N(C)c2ccccc2C(=O)N3C)c1 readout_value=54%
compound=OCCCNc1cc(-c2ccnc(Nc3cccc(Cl)c3)n2)ccn1 readout_value=100%
compound=COc1cc2ncnc(-n3nc(-c4ccccn4)nc3N)c2cc1OC readout_value=3.4%
compound=C=CC(=O)Nc1ccc(C(=O)c2sc(Nc3ccc(N4CCN(C)CC4)cc3OC)nc2N)cc1 readout_value=69%
compound=O=C(Nc1cccc(Nc2ncc(Br)c(NCCc3cnc[nH]3)n2)c1)N1CCCC1 readout_value=0.05%
compound=C=CC(=O)Nc1cccc(Nc2nc(N[C@H]3CC[C@H](N(C)C)CC3)nc3c2ncn3C(C)C)c1 readout_value=42%

Checklist item: kinase still bound, per cent of control tested on KIT (human), P10721 [V559D], entry CCN1CCN(Cc2ccc(Nc3ncc4c(n3)N(C)c3ccccc3C(=O)N4C)cc2C(F)(F)F)CC1 , value?
56%

Checklist item: kinase still bound, per cent of control tested on KIT (human), P10721 [V559D], entry COc1ccc(N(C(=O)Oc2c(C)cccc2C)c2ccnc(Nc3ccc(N4CCN(C)CC4)cc3)n2)c(OC)c1 , value?
0.25%

Checklist item: kinase still bound, per cent of control tested on KIT (human), P10721 [V559D], entry CC[C@@H]1C(=O)N(C)c2cnc(Nc3ccc(C(=O)NC4CCN(C)CC4)cc3OC)nc2N1C1CCCC1 , value?
100%

Checklist item: kinase still bound, per cent of control tested on KIT (human), P10721 [V559D], entry COc1cc2ncnc(Nc3cccc(Cl)c3)c2cc1OC , value?
16%

Checklist item: kinase still bound, per cent of control tested on KIT (human), P10721 [V559D], entry CCOc1cc(N2CCC(O)CC2)ccc1Nc1ncc2c(n1)N(C)c1ccccc1C(=O)N2C , value?
100%

Checklist item: kinase still bound, per cent of control tested on KIT (human), P10721 [V559D], entry C[C@@H](Oc1cc(-n2cnc3ccc(CN4CCN(C)CC4)cc32)sc1C(N)=O)c1ccccc1C(F)(F)F , value?
38%

Checklist item: kinase still bound, per cent of control tested on KIT (human), P10721 [V559D], entry COc1cc(C(=O)NC2CCN(C)CC2)ccc1Nc1ncc2c(n1)N(C1CCCC1)C(C)CC(=O)N2C (configuration not stated) , value?
100%
